Source listed as ChEMBL document CHEMBL1955844.

- ASSAY SYSTEM: MAP kinase-activated protein kinase 5 (Homo sapiens, UniProt Q8IW41)
- Sequence (Q8IW41 whole entry): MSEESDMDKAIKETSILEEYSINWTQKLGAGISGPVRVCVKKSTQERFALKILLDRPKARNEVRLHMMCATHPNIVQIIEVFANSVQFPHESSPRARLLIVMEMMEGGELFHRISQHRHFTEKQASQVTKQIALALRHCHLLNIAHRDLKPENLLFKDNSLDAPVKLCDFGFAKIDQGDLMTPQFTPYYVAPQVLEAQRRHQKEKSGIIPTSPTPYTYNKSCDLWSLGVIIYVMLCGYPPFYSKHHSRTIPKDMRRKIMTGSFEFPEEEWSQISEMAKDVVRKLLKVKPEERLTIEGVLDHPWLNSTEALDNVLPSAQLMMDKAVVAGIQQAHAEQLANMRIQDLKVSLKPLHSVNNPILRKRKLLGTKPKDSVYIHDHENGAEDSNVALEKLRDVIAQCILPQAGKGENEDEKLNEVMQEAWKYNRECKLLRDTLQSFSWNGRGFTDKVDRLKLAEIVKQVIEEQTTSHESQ
- EXPERIMENT SUMMARY: Inhibition of MAPKAPK5
ENDPOINT: IC50 (µM)

NC(=O)c1ncc(-c2cnc(Nc3ccc(N4CCOCC4)cc3)c3nccn23)s1 3.2
NC(=O)c1cnc(-c2cnc(Nc3ccc(N4CCOCC4)cc3)c3nccn23)s1 2.82

---

- ASSAY SYSTEM: MAP kinase-activated protein kinase 5 (Homo sapiens)
- EXPERIMENT SUMMARY: Inhibition of MAPKAPK5
ENDPOINT: IC50

These recorded examples may help you get a feel for the data.
c1cn2c(-c3ccc4[nH]ccc4c3)cnc(Nc3ccc(N4CCOCC4)cc3)c2n1 > 10 µM
NS(=O)(=O)c1ccc(-c2cnc(Nc3ccc(N4CCOCC4)cc3)c3nccn23)cc1 > 10 µM

Consider the additional compound presented here.
Look up IC50 for this compound: CCOc1cc(-c2cnc(Nc3ccc(N4CCOCC4)cc3)c3nccn23)ccn1
> 10 µM
